I'd appreciate it if you could supply IC50 values for the items below.
target: HLA-A*6801 (Homo sapiens, UniProt P04439, A269V/D185E/E176V/E277Q/E87N/F33Y/G231S/I121M/I166T/I218V/L180W/L300P/L318F/N151K/P208A/P217A/Q86R/R169H/T345S); assay type: binding; conditions: Table XXIII, HLA-A3 supermotif-bearing peptides
Where no end group is shown, it is not given here.
Report only the number, with the unit nM understood.

IN: Requested field: IC50. Item: TILWKDIFHK [Her2/neu.166]
OUT: 200

IN: # lookup: IC50 of AVPLDSTFYK [Her2/neU.997.V2K10]
OUT: 229

IN: Entry under review: LVKSPNHVR [Her2/neu.852.R9] . Reported IC50?
OUT: 50

IN: Consider the sequence HVVPWDQLFR [Her2/neu.478.V2] and give its measured IC50.
OUT: 3.6

====

system: HLA-DR molecules (DR1, DR4w4, DR7, DRB5*0101, DRB1*1501, DRB1*1101, DRB1*0802, DRB1*1302); assay: DR supertype cross-reactive binding; set-up: species or system human; details: number of the 8 DR alleles bound
Experimental Endpoint: Broad Binding (5/8)

IN: Fill in the blank: the reported Broad Binding (5/8) of `CC(C)C[C@H](NC(=O)CNC(=O)[C@H](Cc1c[nH]c2ccccc12)NC(=O)[C@@H](N)CCCNC(=N)N)C(=O)N[C@@H](CC(C)C)C(=O)N[C@@H](CC(C)C)C(=O)N[C@@H](C)C(=O)N[C@@H](CC(C)C)C(=O)N[C@@H](CC(C)C)C(=O)N1CCC[C@H]1C(=O)N1CCC[C@H]1C(=O)NCC(=O)N[C@@H](C)C(=O)N[C@@H](C)C(=O)N[C@@H](CO)C(=O)O` is ____.
OUT: 6

IN: For the compound `CC(C)C[C@H](NC(=O)[C@H](CO)NC(=O)[C@H](C)NC(=O)[C@H](CC(N)=O)NC(=O)[C@@H](NC(=O)[C@@H]1CCCN1C(=O)[C@H](CC(C)C)NC(=O)[C@H](Cc1ccc(O)cc1)NC(=O)[C@@H](NC(=O)[C@@H](N)CC(C)C)[C@@H](C)O)[C@@H](C)O)C(=O)N[C@@H](CO)C(=O)N[C@@H](Cc1ccccc1)C(=O)N[C@@H](CC(C)C)C(=O)N[C@@H](CCC(N)=O)C(=O)N[C@@H](CC(=O)O)C(=O)O` , what Broad Binding (5/8) is on record?
OUT: 6

IN: Would you mind telling me what Broad Binding (5/8) value was observed for `CC[C@H](C)[C@H](NC(=O)CNC(=O)[C@H](Cc1ccccc1)NC(=O)[C@@H](NC(=O)[C@@H](NC(=O)CNC(=O)[C@H](CC(C)C)NC(=O)[C@@H](N)C(C)C)C(C)C)C(C)C)C(=O)N[C@@H](CC(C)C)C(=O)N[C@H](C(=O)N[C@@H](CCCCN)C(=O)N[C@@H](CCCNC(=N)N)C(=O)N[C@@H](CCCNC(=N)N)C(=O)N[C@@H](CCC(N)=O)C(=O)N[C@@H](CCC(N)=O)C(=O)O)[C@@H](C)CC` ?
OUT: 7

IN: // returns reported Broad Binding (5/8) for input `CC[C@H](C)[C@H](NC(=O)CNC(=O)[C@H](CC(C)C)NC(=O)[C@H](CC(C)C)NC(=O)[C@H](CCCNC(=N)N)NC(=O)[C@@H](N)CO)C(=O)N[C@@H](CS)C(=O)N[C@@H](CC(C)C)C(=O)N[C@H](C(=O)N[C@@H](CO)C(=O)N[C@H](C(=O)N[C@H](C(=O)N[C@@H](CCC(N)=O)C(=O)N[C@@H](CC(C)C)C(=O)N[C@H](C(=O)O)C(C)C)C(C)C)[C@@H](C)O)[C@@H](C)O`
OUT: 5

IN: Which Broad Binding (5/8) is listed for `CSCC[C@H](NC(=O)[C@H](CC(C)C)NC(=O)[C@H](CCC(N)=O)NC(=O)[C@@H](NC(=O)[C@@H](NC(=O)[C@H](CC(C)C)NC(=O)[C@H](CCC(N)=O)NC(=O)[C@@H](NC(=O)[C@@H](N)[C@@H](C)O)C(C)C)C(C)C)[C@@H](C)O)C(=O)N1CCC[C@H]1C(=O)N[C@@H](Cc1ccc(O)cc1)C(=O)NCC(=O)N[C@@H](CS)C(=O)N[C@@H](CC(C)C)C(=O)N[C@@H](CC(C)C)C(=O)O` ?
OUT: 3

====

biological target: DRB5*0101 (DR2w2β2) (Homo sapiens, UniProt P01903+Q30154); experiment: HLA class II peptide binding assay, purified HLA; conditions: Table XIX, DR supermotif peptides; unit not given
Experimental Endpoint: DR2w2B2 binding data
Output spec: single numeric token, no unit.

IN: What does the record list as DR2w2B2 binding data for `CC[C@H](C)[C@H](NC(=O)[C@H](C)NC(=O)[C@@H](NC(=O)[C@@H]1CCCN1C(=O)[C@@H](NC(=O)[C@H](CCCCN)NC(=O)[C@@H](NC(=O)[C@H](CC(N)=O)NC(=O)[C@H](CCC(=O)O)NC(=O)CN)C(C)C)[C@@H](C)CC)C(C)C)C(=O)N[C@@H](CCCCN)C(=O)N[C@H](C(=O)N[C@@H](CC(C)C)C(=O)N[C@@H](CCCNC(=N)N)C(=O)N[C@@H](CCC(=O)O)C(=O)O)C(C)C` ?
OUT: 0.0034

IN: Consider the molecule shown here: `CSCC[C@H](NC(=O)[C@H](CC(C)C)NC(=O)[C@H](CCC(N)=O)NC(=O)[C@@H](NC(=O)[C@@H](NC(=O)[C@H](CC(C)C)NC(=O)[C@H](CCC(N)=O)NC(=O)[C@@H](NC(=O)[C@@H](N)[C@@H](C)O)C(C)C)C(C)C)[C@@H](C)O)C(=O)N1CCC[C@H]1C(=O)N[C@@H](Cc1ccc(O)cc1)C(=O)NCC(=O)N[C@@H](CS)C(=O)N[C@@H](CC(C)C)C(=O)N[C@@H](CC(C)C)C(=O)O` What is its recorded DR2w2B2 binding data?
OUT: 0.0009

====

tested on: HLA-DR molecules (DR1, DR4w4, DR7, DRB5*0101, DRB1*1501, DRB1*1101, DRB1*0802, DRB1*1302); experiment: DR supertype cross-reactive binding; set-up: species or system human; details: number of DR1, DR4w4, DR7 bound, Table XXVIII
Experimental Endpoint: DR147 Cross-binding

IN: I'd like to know its DR147 Cross-binding. The molecule in question is `CC[C@H](C)[C@H](NC(=O)[C@H](CC(C)C)NC(=O)[C@H](C)NC(=O)[C@H](CC(C)C)NC(=O)CNC(=O)[C@H](CO)NC(=O)CNC(=O)[C@H](CC(C)C)NC(=O)[C@H](CCC(=O)O)NC(=O)[C@H](CCCNC(=N)N)NC(=O)[C@@H](N)CC(C)C)C(=O)N[C@@H](Cc1c[nH]cn1)C(=O)N[C@@H](Cc1c[nH]cn1)C(=O)N[C@@H](CC(N)=O)C(=O)N[C@H](C(=O)O)[C@@H](C)O`
OUT: 1

IN: Report DR147 Cross-binding for `CC[C@H](C)[C@H](NC(=O)[C@@H]1CCCN1C(=O)[C@H](CCSC)NC(=O)[C@H](Cc1ccc(O)cc1)NC(=O)[C@H](CO)NC(=O)[C@H](CC(C)C)NC(=O)[C@H](CC(=O)O)NC(=O)[C@@H]1CCCN1C(=O)[C@@H](N)CCCCN)C(=O)N[C@@H](Cc1c[nH]c2ccccc12)C(=O)N[C@@H](CCCCN)C(=O)N[C@@H](Cc1ccccc1)C(=O)N1CCC[C@H]1C(=O)N[C@@H](CC(=O)O)C(=O)N[C@@H](CCC(=O)O)C(=O)O` please.
OUT: 1

IN: For `CC(C)C[C@H](NC(=O)[C@H](CO)NC(=O)[C@H](C)NC(=O)[C@H](CC(N)=O)NC(=O)[C@@H](NC(=O)[C@@H]1CCCN1C(=O)[C@H](CC(C)C)NC(=O)[C@H](Cc1ccc(O)cc1)NC(=O)[C@@H](NC(=O)[C@@H](N)CC(C)C)[C@@H](C)O)[C@@H](C)O)C(=O)N[C@@H](CO)C(=O)N[C@@H](Cc1ccccc1)C(=O)N[C@@H](CC(C)C)C(=O)N[C@@H](CCC(N)=O)C(=O)N[C@@H](CC(=O)O)C(=O)O` , what is its reported DR147 Cross-binding?
OUT: 3

IN: Please look up its DR147 Cross-binding: `CC[C@H](C)[C@H](NC(=O)CNC(=O)[C@@H](NC(=O)[C@@H](NC(=O)[C@H](C)NC(=O)[C@H](CO)NC(=O)[C@@H](NC(=O)[C@@H](NC(=O)[C@H](CO)NC(=O)[C@@H](NC(=O)[C@@H](N)CC(C)C)[C@@H](C)O)[C@@H](C)CC)[C@@H](C)CC)C(C)C)C(C)C)C(=O)N[C@@H](CC(C)C)C(=O)N[C@@H](CC(C)C)C(=O)N[C@H](C(=O)N[C@H](C(=O)O)C(C)C)C(C)C`
OUT: 1
